Taken from patent US12103915B2.

- Target: UniProt:Q15561
- Sequence (Q15561 whole entry, species assumed): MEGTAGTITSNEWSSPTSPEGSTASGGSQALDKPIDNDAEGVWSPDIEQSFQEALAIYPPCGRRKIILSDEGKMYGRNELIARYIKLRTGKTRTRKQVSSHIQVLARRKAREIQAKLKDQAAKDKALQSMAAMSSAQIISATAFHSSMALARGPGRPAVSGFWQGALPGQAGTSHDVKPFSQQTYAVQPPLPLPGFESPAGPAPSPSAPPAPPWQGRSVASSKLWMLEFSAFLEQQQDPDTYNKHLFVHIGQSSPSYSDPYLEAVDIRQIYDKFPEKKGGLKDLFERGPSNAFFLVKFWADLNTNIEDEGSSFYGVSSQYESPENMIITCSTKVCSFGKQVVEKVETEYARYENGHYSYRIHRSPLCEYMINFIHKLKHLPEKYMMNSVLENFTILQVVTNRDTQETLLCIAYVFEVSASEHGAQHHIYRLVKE
- Assay overview: Thermal shift assay TEAD4
- Type: binding
param class (str): category from TEAD4 ΔTm; see ranges lo = under 4 °C, mid = from 4 °C up to 8 °C, hi = 8 °C and over

Compound | Classification
Cn1ncc2c([C@@H]3C[C@H]3C(=O)N3CC(O)C3)cc(-c3ccc(C(F)(F)F)cc3)cc21 (racemic) [Example 31] | lo
Cn1cc2cc(Oc3ccc(C(F)(F)F)cc3)cc([C@H]3C[C@@H]3C(=O)N3CC(O)C3)c2n1 (single isomer, unassigned) [Example 58b] | hi
Cn1ncc2c(C3C[C@H]3C(=O)O)cc(OCc3ccc(C(F)(F)F)cc3)cc21 (mixture of isomers) [Example 19] | lo
Cc1cn2cc(Oc3ccc(C(F)(F)F)cc3)cc([C@H]3C[C@@H]3C(=O)N3CC(O)C3)c2n1 (single isomer, unassigned) [Example 85b] | mid
Cn1cc2cc(Oc3ccc(Cl)cc3)cc([C@@H]3C[C@H]3C(=O)N3C[C@@H]4C[C@H]3C[C@@H]4O)c2n1 (single isomer, unassigned) [Example 139] | mid
Cn1cc2cc(-c3ccc(C(F)(F)F)cc3)cc(C3C[C@H]3C(=O)O)c2n1 (mixture of isomers) [Example 2] | hi
CC(C)NC(=O)[C@H]1C[C@@H]1c1cc(Oc2ccc(C(F)(F)F)cc2)cc2cn(C)nc12 (single isomer, unassigned) [Example 56b] | hi
CNS(=O)(=O)/C=C/c1cc(-c2ccc(C(F)(F)F)cc2)cc2c1cnn2C [Example 41] | lo
O=C(O)[C@@H]1CC1c1cc(Oc2ccc(C(F)(F)F)cc2)cc2cccnc12 (mixture of isomers) [Example 17] | hi
Cn1ncc2c(C3C[C@H]3C(=O)O)cc(-c3ccc(C(F)(F)F)cc3)cc21 (mixture of isomers) [Example 7] | mid
Cn1ncc2c(C3C[C@H]3C(=O)O)cc(-c3ccc(OC(F)(F)F)cc3)cc21 (mixture of isomers) [Example 10] | mid
O=C(O)[C@@H]1CC1c1cc(-c2ccc(C(F)(F)F)cc2)cc2c1cnn2C(F)F (mixture of isomers) [Example 9] | mid
Cn1cc2cc(O[C@H]3CC[C@@H](C(F)(F)F)CC3)cc([C@H]3C[C@@H]3C(=O)N3CC(O)C3)c2n1 (single isomer, unassigned) [Example 87b] | lo
CNC(=O)[C@@H]1CC1c1cc(-c2ccc(OC(F)(F)F)cc2)cc2cn(C)nc12 (mixture of isomers) [Example 33] | mid
